ELISA (absorbance units) (absorbance units) for assorted binders
Target: bovine serum albumin (bovine) (UniProt P02769)
Sequence (P02769 25-607 limits assumed): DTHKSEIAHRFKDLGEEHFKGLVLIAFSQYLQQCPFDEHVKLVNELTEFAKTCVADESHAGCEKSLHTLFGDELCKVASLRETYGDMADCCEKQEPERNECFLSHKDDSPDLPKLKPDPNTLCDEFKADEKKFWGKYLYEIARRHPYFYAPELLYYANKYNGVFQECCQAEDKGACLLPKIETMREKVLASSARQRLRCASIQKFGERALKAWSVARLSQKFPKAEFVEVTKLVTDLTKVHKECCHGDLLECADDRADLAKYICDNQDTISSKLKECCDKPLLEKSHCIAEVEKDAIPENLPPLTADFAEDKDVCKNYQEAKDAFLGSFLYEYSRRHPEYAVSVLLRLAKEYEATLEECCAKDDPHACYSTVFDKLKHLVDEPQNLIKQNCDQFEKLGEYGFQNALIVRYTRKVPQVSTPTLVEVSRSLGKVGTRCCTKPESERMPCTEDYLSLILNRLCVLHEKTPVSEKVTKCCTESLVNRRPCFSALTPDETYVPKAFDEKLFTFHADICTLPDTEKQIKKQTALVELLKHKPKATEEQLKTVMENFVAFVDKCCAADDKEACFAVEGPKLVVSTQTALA
Test: phage ELISA, BSA only, 10^8 phagemid per well
Positions of bridges follow the written chain, without caps; N, C: chain ends. No end group written: not given here.
reported.metric: ELISA (absorbance units) (absorbance units)

{"binder": "CSLFYLWDQDRCS (disulfide 1-12 (inferred); also: displayed on phage (phagemid), coat fusion not given here) [phagemid CS1-2p (phage-displayed disulfide cyclized 13 mer peptide)]", "measurement": 0.264}
{"binder": "CSGLYPWDYFMCS (disulfide 1-12 (inferred); also: displayed on phage (phagemid)) [phagemid CS1-29p (phage-displayed disulfide cyclized 13 mer peptide)]", "measurement": 0.127}
{"binder": "CSGLYPWDMFRCS (disulfide 1-12 (inferred); also: displayed on phage (phagemid)) [phagemid CS1-9p (phage-displayed disulfide cyclized 13 mer peptide)]", "measurement": 0.216}
{"binder": "CSFRYLWDQDRCS (disulfide 1-12 (inferred); also: displayed on phage (phagemid)) [phagemid CS1-6p (phage-displayed disulfide cyclized 13 mer peptide)]", "measurement": 0.254}
{"binder": "CSFRYQWDMFRCS (disulfide 1-12 (inferred); also: displayed on phage (phagemid)) [phagemid CS1-11p (phage-displayed disulfide cyclized 13 mer peptide)]", "measurement": 0.268}
{"binder": "CSFFYSLCYCWCS (disulfide (positions not given here); also: four Cys, disulfide pairing not given here) [phagemid CS1-31p (phage-displayed disulfide cyclized 13 mer peptide)]", "measurement": 0.109}
